// IC50 lookup, one value per entry
molecular target: catalytic domain of human PARP14 (Homo sapiens (Human), UniProt Q460N5); test: Enzymatic assay for inhibition of PARP14 (DELFIA, auto-modification with biotin-NAD); settings: auto-modification of PARP14 by biotin-NAD, 50 nM PARP14, 3 μM biotin-NAD
Sequence (Q460N5 1611-1801): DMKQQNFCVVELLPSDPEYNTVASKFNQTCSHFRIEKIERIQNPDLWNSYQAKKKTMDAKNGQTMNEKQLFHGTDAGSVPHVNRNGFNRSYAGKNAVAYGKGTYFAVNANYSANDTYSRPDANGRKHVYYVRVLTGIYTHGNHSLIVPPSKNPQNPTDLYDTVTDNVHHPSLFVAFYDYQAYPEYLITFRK

Q) Would you mind telling me what IC50 value was observed for O=c1[nH]c(CS[C@H]2CC[C@H](O)CC2)nc2cc(NC3CCCC3)c(F)c(F)c12 ?
A) < 1000 nM

Q) Which IC50 is listed for O=C(N[C@H]1CC[C@H](SCc2nc3cc(OCC4CC4)cc(F)c3c(=O)[nH]2)CC1)C1CC1 ?
A) < 1000 nM

Q) Dear colleague, I am looking for the recorded IC50 of the following compound: COC(=O)N1CCC(COc2cc(F)c3c(=O)[nH]c(CSC4CCOCC4)nc3c2)CC1
A) < 1000 nM

Q) Sample O=c1[nH]c(CS[C@H]2CC[C@H](CO)CC2)nc2cc(Nc3ccccc3)ccc12 — what was its IC50?
A) 1000 to 10000 nM

###

biological target: catalytic domain of human PARP14 (Homo sapiens (Human)); assay: Enzymatic assay for inhibition of PARP14 (DELFIA, auto-modification with biotin-NAD); details: auto-modification of PARP14 by biotin-NAD, 50 nM PARP14, 3 μM biotin-NAD
Counter-ions that a name gives are not always drawn.
Examples of compounds with documented IC50 follow.

Some solved cases for reference:
compound	tested-target	quantity-measured	observed-measurement
O=c1[nH]c(CSC2CCOCC2)nc2cc(NC3CCN(C4COC4)CC3)cc(F)c12	catalytic domain of human PARP14 (Homo sapiens (Human))	IC50	< 1 µM
CN1CCC(Nc2ccc3c(=O)[nH]c(CSC4CCOCC4)nc3c2)CC1	catalytic domain of human PARP14 (Homo sapiens (Human))	IC50	> 10 µM

Q) Which IC50 reading was recorded for the compound Cc1cccc2c(=O)[nH]c(CSC3CCCNCC3)nc12 (centres unmarked) [Example 20, Trifluoroacetate] ?
A) < 1 µM

Q) Which IC50 reading was recorded for the compound O=c1[nH]c(CSC2CCOCC2)nc2cc(Cc3ccccc3)ccc12 ?
A) > 10 µM

Q) Dear colleague, I am looking for the recorded IC50 of the following compound: CC(C)COc1cc(F)c2c(=O)[nH]c(CSC3CCOCC3)nc2c1
A) 1 to 10 µM

Q) Can you look up the measured IC50 of O=c1[nH]c(CS[C@H]2CCN[C@H](C(F)(F)F)C2)nc2cc(NC3CCCC3)cc(F)c12 (relative stereo) [Example 227, bis Trifluoroacetate] for me?
A) 1 to 10 µM

Q) Looking for the measured IC50 of Cc1cccc2c(=O)[nH]c(CS[C@@H]3CCC[C@H](CO)O3)nc12 (relative stereo) , can you help?
A) > 10 µM

Q) If you can, please state the reported IC50 value of Cc1nccc2c(=O)[nH]c(CSC3CCOCC3)nc12 .
A) > 10 µM

###

Some molecules, each annotated with its measured pIC50.
target: catalytic domain of human PARP14 (Homo sapiens (Human), UniProt Q460N5); assay: Enzymatic assay for inhibition of PARP14 (DELFIA, auto-modification with biotin-NAD); conditions: auto-modification of PARP14 by biotin-NAD, 50 nM PARP14, 3 μM biotin-NAD
pIC50: −log10 of the molar value.

Q) Entry O=c1[nH]c(CSC2CCOCC2)nc2cc(NC3CCN(Cc4ccccc4)CC3)ccc12 [Example 128] has what pIC50?
A) 5.00 to 6.00

Q) Reported pIC50, molecule O=c1[nH]c(CSC2CCOCC2)nc2cc(OCC3CC3(F)F)cc(F)c12 (centres unmarked) [Example 315] : ____
A) > 6.00

Q) So what's the measured pIC50 for this one? CN(C)C(=O)N1CCC(SCc2nc3cc(NC4CCCC4)cc(F)c3c(=O)[nH]2)CC1 [Example 220]
A) > 6.00

Q) Any idea what its pIC50 is? The molecule is Cc1cc(OCC2CCC2)cc2nc(CSC3CCOCC3)[nH]c(=O)c12 [Example 237]
A) > 6.00

###

molecular target: catalytic domain of human PARP14 (Homo sapiens (Human)); test: Enzymatic assay for inhibition of PARP14 (DELFIA, auto-modification with biotin-NAD); settings: auto-modification of PARP14 by biotin-NAD, 50 nM PARP14, 3 μM biotin-NAD
pIC50: −log10 of the molar value.
quantity-measured: pIC50

molecule	pIC50
CC(=O)N[C@H]1C[C@H](SCc2nc3cc(OCC4CCOCC4)cc(F)c3c(=O)[nH]2)C1	> 6.00
O=c1[nH]c(CS[C@H]2CC[C@@H](O)CC2)nc2cc(NC3CCCC3)ccc12	> 6.00
Cc1cccc2nc(CSC3CCOCC3)[nH]c(=O)c12	5.00 to 6.00

Shift focus to the following entry.
Q) Please give the measured pIC50 for this molecule: O=c1[nH]c(CSC2CCOCC2)nc2cnccc12
A) < 5.00

###

biological target: catalytic domain of human PARP14 (Homo sapiens (Human), UniProt Q460N5); test: Enzymatic assay for inhibition of PARP14 (DELFIA, auto-modification with biotin-NAD); conditions: auto-modification of PARP14 by biotin-NAD, 50 nM PARP14, 3 μM biotin-NAD
Counter-ions that a name gives are not always drawn.
quantity-measured: IC50

molecule	observed-measurement
O=c1[nH]c(CS[C@H]2CCNC[C@H]2F)nc2cc(NCC3CCC3)c(F)cc12 (relative stereo) [Example 303, hydrochloride]	< 1000 nM
O=c1[nH]c(CS[C@@H]2CCNCC2F)nc2cc(OCC3CC3)cc(F)c12 (stereo in doubt) [Example 295, hydrochloride]	< 1000 nM
O=c1[nH]c(CSC2CCCCC2)nc2cc(OCC3CCC3)cc(F)c12	< 1000 nM
Cc1cccc2c(=O)[nH]c(CS(=O)(=O)C3CCOCC3)nc12	> 10000 nM
CC(C)(C)CNc1cc2nc(CSC3CCOCC3)[nH]c(=O)c2c(F)c1F	< 1000 nM

Q) Could you share which IC50 value was measured for O=c1[nH]c(CSC2CCOCC2)nc2cc(OCc3ccccc3)ccc12 ?
A) 1000 to 10000 nM

Q) May I ask what IC50 has been recorded for O=c1[nH]c(CSC2CCCCC2)nc2cc(NC3CCCC3)cc(F)c12 ?
A) < 1000 nM

Q) Report IC50 for CN1CCN([C@H]2CC[C@@H](Nc3cc4nc(CSC5CCOCC5)[nH]c(=O)c4c(F)c3F)CC2)CC1 please.
A) < 1000 nM

###

target: catalytic domain of human PARP14 (Homo sapiens (Human), UniProt Q460N5); experiment: Enzymatic assay for inhibition of PARP14 (DELFIA, auto-modification with biotin-NAD); details: auto-modification of PARP14 by biotin-NAD, 50 nM PARP14, 3 μM biotin-NAD
pIC50: −log10 of the molar value.
Reported values of pIC50 for individual entries

Q) # value lookup — system catalytic domain of human PARP14 (Homo sapiens (Human), UniProt Q460N5), readout pIC50, item CC(=O)N1CCCC(COc2cc(F)c3c(=O)[nH]c(CSC4CCOCC4)nc3c2)C1 (stereo not shown) [Example 401]
A) > 6.00

Q) Enter reported pIC50 observed with catalytic domain of human PARP14 (Homo sapiens (Human), UniProt Q460N5) for C[C@]1(O)CC[C@H](SCc2nc3cc(OCC4CCOCC4)cc(F)c3c(=O)[nH]2)CC1 [Example 332]
A) > 6.00

Q) # get_value(readout= pIC50, system= catalytic domain of human PARP14 (Homo sapiens (Human), UniProt Q460N5)) for CN(C)[C@H]1CC[C@H](SCc2nc3cc(OCC4CC4)cc(F)c3c(=O)[nH]2)CC1 [Example 404]
A) > 6.00

###

molecular target: catalytic domain of human PARP14 (Homo sapiens (Human), UniProt Q460N5); test: Enzymatic assay for inhibition of PARP14 (DELFIA, auto-modification with biotin-NAD); settings: auto-modification of PARP14 by biotin-NAD, 50 nM PARP14, 3 μM biotin-NAD
pIC50: −log10 of the molar value.
Measured pIC50 of individual entries

Q) Recall the recorded pIC50 for O=c1[nH]c(CSC2CCOCC2)nc2cccnc12 [Example 36] with catalytic domain of human PARP14 (Homo sapiens (Human), UniProt Q460N5) and state it.
A) < 5.00

Q) Entry CCO[C@H]1C[C@@H](Nc2cc3nc(CSC4CCOCC4)[nH]c(=O)c3c(F)c2F)C1 [Example 331] , system catalytic domain of human PARP14 (Homo sapiens (Human), UniProt Q460N5): what pIC50 was measured?
A) > 6.00

Q) Recorded pIC50 for Cc1c(Oc2ccccc2)ccc2c(=O)[nH]c(CSC3CCOCC3)nc12 [Example 135] with catalytic domain of human PARP14 (Homo sapiens (Human), UniProt Q460N5), please?
A) < 5.00

Q) Fill in the recorded pIC50 for this compound, with catalytic domain of human PARP14 (Homo sapiens (Human), UniProt Q460N5) as test system: O=c1[nH]c(CS[C@H]2CC[C@H](O)CC2)nc2cc(NC3CCN(CCC(F)(F)F)CC3)c(F)c(F)c12 [Example 354]
A) > 6.00

Q) Query pIC50 on catalytic domain of human PARP14 (Homo sapiens (Human), UniProt Q460N5) for Nc1cc2nc(CSC3CCOCC3)[nH]c(=O)c2c(F)c1F [Example 403]
A) < 5.00

Q) Param readout = pIC50; param system = catalytic domain of human PARP14 (Homo sapiens (Human), UniProt Q460N5); param query = O=C(Nc1ccc2c(=O)[nH]c(CSC3CCOCC3)nc2c1)c1ccccc1 [Example 76] ; response: value
A) 5.00 to 6.00

Q) So what pIC50 did O=c1[nH]c(CS[C@H]2CC[C@H](O)CC2)nc2cc(NC3CCCC3)cc(C(F)(F)F)c12 [Example 199] get with catalytic domain of human PARP14 (Homo sapiens (Human), UniProt Q460N5)?
A) > 6.00

Q) Please provide the recorded pIC50 for O=c1[nH]c(CSC2CCOCC2)nc2cc(CCC3CCCCC3)cc(F)c12 [Example 368] , tested on catalytic domain of human PARP14 (Homo sapiens (Human), UniProt Q460N5).
A) 5.00 to 6.00
